target: Endoribonuclease toxin MazF (Escherichia coli (strain K12)); experiment: activation of MazEF endoribonuclease cleavage – biochemical, fluorescence, single-stranded RNA substrate, uHTS hits, dose response (AID 588481); details: inactive by the depositor's call
measured.quantity: EC50 (µM)
Answer format: numeric, µM implied, no suffix.

-- ask Lab note: need EC50 for Cc1ccc(S(=O)(=O)N[N-][C+]2CCC(C(C)(C)C)CC2)cc1[N+](=O)[O-] [SMR000241764] on Endoribonuclease toxin MazF (Escherichia coli (strain K12)), anyone have it?
-- reply 52

* * *

EC50: recorded values
Target: Endoribonuclease toxin MazF (Escherichia coli (strain K12), UniProt P0AE70)
Sequence (P0AE70 whole entry): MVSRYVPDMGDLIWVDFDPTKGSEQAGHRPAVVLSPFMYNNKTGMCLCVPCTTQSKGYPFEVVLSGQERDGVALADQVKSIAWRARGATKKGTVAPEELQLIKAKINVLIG
Assay: activation of MazEF endoribonuclease cleavage – biochemical, fluorescence, single-stranded RNA substrate, uHTS hits, dose response (AID 588481)
Answer format: numeric, µM implied, no suffix.

> print(dat)
                           molecular.string  unit.abbreviation  value.reported
1  O=C(c1ccc2ccccc2n1)c1[nH][nH]c2c(O)n(-c3cccc(F)c3)c(=O)c1-2                 µM            20.5

-- ask What does the record list as EC50 for Cc1ccc(NN=C2C(=O)N(CN3CCOCC3)c3ccccc32)cc1 ?
-- reply 39.4

* * *

target: Endoribonuclease toxin MazF (Escherichia coli (strain K12)); experiment: activation of MazEF endoribonuclease cleavage – biochemical, fluorescence, single-stranded RNA substrate, uHTS hits, dose response (AID 588481)
EC50: recorded values

Some solved cases for reference:
> print(dat)
                                   compound  value.reported
1  Cc1oc(C)c2c(=O)ccc3c(c12)OC(=N)C(C#N)C3c1ccccc1 (stereo not given)         > 99 µM
2  C=CCOc1cccc(C2C(C(=O)c3ccc(C)o3)C(=O)C(=O)N2c2nccs2)c1 (stereo not given)         11.4 µM
3  COc1cccc(C2=Nc3nnnn3C(c3ccc(N(C)C)cc3)C2)c1 (stereo not given)         > 99 µM
4           O=C1N=c2ccccc2=C1NNc1cccc(Cl)c1         > 99 µM

Now examine the next entry.
-- ask What does the record list as EC50 for COc1ccc(C=C2CCCC(C(=O)C(F)(F)F)C2=O)cc1 (stereo not given) ?
-- reply > 99 µM

* * *

target: Endoribonuclease toxin MazF (Escherichia coli (strain K12), UniProt P0AE70); assay: activation of MazEF endoribonuclease cleavage – biochemical, fluorescence, single-stranded RNA substrate, uHTS hits, dose response (AID 588481)
pEC50: −log10 of the molar value.
pEC50: recorded values

> print(dat)
                                   molecule  value.reported
1   CCCN1C(=O)C(=NNc2ccc3ccccc3n2)c2ccccc21          < 4.00
2  Cn1c(C(C#N)C(=O)COc2ccc3ccccc3c2)nc2ccccc21 (stereo not given)          < 4.00
3  Cc1ccc2nc(N3C(=O)C(=O)C(C(=O)c4ccco4)C3c3cccs3)sc2c1 (stereo not given)          < 4.00

-- ask What does the record list as pEC50 for CSc1ccc(C2C(C(=O)c3ccco3)C(=O)C(=O)N2c2nnc(SC)s2)cc1 (stereo not given) ?
-- reply < 4.00

-- ask What does the record list as pEC50 for Cc1[nH]c2ccccc2c1/C=C1\N=C(c2ccc(F)cc2)OC1=O ?
-- reply < 4.00

-- ask What does the record list as pEC50 for Cc1[nH]c2ccccc2c1/C=C1\N=C(c2ccc(C(F)(F)F)cc2)OC1=O ?
-- reply < 4.00

-- ask What does the record list as pEC50 for Clc1cccc(C(Cc2nc3ccccc3[nH]2)N=Nc2ccccc2)c1 (stereo not given) ?
-- reply < 4.00

-- ask What does the record list as pEC50 for Cc1ccc(C2=Nc3nnnn3C(c3ccc(N(C)C)cc3)C2)cc1 (stereo not given) ?
-- reply < 4.00

-- ask What does the record list as pEC50 for Cc1cc(O)n(-c2ccc(NCc3ccc(Cl)cc3)c([N+](=O)[O-])c2)c1O ?
-- reply 4.02

-- ask What does the record list as pEC50 for Cc1ccc(N/N=C2/C(=O)Nc3ccc(F)cc32)cc1 ?
-- reply < 4.00

* * *

Target: Endoribonuclease toxin MazF (Escherichia coli (strain K12), UniProt P0AE70)
Sequence (P0AE70 whole entry): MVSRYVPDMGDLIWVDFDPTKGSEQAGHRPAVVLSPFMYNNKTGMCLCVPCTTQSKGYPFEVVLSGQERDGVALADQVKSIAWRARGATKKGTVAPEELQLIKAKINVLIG
Experiment: activation of MazEF endoribonuclease cleavage – biochemical, fluorescence, single-stranded RNA substrate, uHTS hits, dose response (AID 588481)
EC50: recorded values
Answer format: numeric, µM implied, no suffix.

Some solved cases for reference:
> print(dat)
                                   compound  measured.quantity  value.reported
1  O=[N+]([O-])c1ccc(N=NCc2ccc3c(c2)OCO3)nc1               EC50            40.5
2  CCOc1cccc(C2C(C(=O)c3ccc(C)o3)C(=O)C(=O)N2c2nccs2)c1 (stereo not given)               EC50            16.9

Now examine the next entry.
-- ask What does the record list as EC50 for O=C(c1ccc2ccccc2n1)c1[nH][nH]c2c(O)n(-c3cccc(C(F)(F)F)c3)c(=O)c1-2 ?
-- reply 47.9

* * *

EC50: recorded values
target: Endoribonuclease toxin MazF (Escherichia coli (strain K12), UniProt P0AE70); experiment: activation of MazEF endoribonuclease cleavage – biochemical, fluorescence, single-stranded RNA substrate, uHTS hits, dose response (AID 588481)

> print(dat)
                                   compound  value.reported
1  Cc1nnc(N2C(=O)C(=O)C(C(=O)c3ccco3)C2c2ccc(C(C)(C)C)cc2)s1 (stereo unspecified)         > 99 µM

-- ask What does the record list as EC50 for O=[N+]([O-])c1cc/c(=N\c2ccccc2O)c2no[nH]c1-2 ?
-- reply > 99 µM

-- ask What does the record list as EC50 for O=C1Nc2ccccc2C1=NNc1ccccc1 [3-(phenylhydrazo)-2-indolone] ?
-- reply > 99 µM

-- ask What does the record list as EC50 for N=C(N)C1=CC(=O)/C(=C/C=c2ccc(=C(N)N)cc2)C=C1 ?
-- reply 4.77 µM

-- ask What does the record list as EC50 for Cc1cccc(NNC2=c3cc(F)ccc3=NC2=O)c1 ?
-- reply 38.7 µM

-- ask What does the record list as EC50 for O=c1[nH]c(N=NCc2ccc(F)cc2)nc2ccccc12 ?
-- reply 7.12 µM

* * *

pEC50: recorded values
molecular target: Endoribonuclease toxin MazF (Escherichia coli (strain K12), UniProt P0AE70); assay: activation of MazEF endoribonuclease cleavage – biochemical, fluorescence, single-stranded RNA substrate, uHTS hits, dose response (AID 588481)
pEC50: −log10 of the molar value.

> print(dat)
                                   compound  value.reported
1  CCC(N=Nc1cccc(C)c1)c1cnnc(SC)n1 (stereo unspecified)          < 4.00

-- ask What does the record list as pEC50 for COc1ccc(N=CCC(=O)c2ccc(C)cc2)cc1OC ?
-- reply < 4.00

-- ask What does the record list as pEC50 for O=C1N=c2ccccc2=C1NNc1ccc(F)cc1 ?
-- reply < 4.00

-- ask What does the record list as pEC50 for COc1ccc(Nc2oc3cc(=O)ccc-3cc2C(=O)NCC2CCCO2)c(OC)c1 (stereo unspecified) ?
-- reply < 4.00

-- ask What does the record list as pEC50 for CCCCN1C(=O)C(=NNc2ccccc2O)c2ccccc21 ?
-- reply 4.35

-- ask What does the record list as pEC50 for COc1cc2c(cc1OC)C(CC(=O)c1ccc([N+](=O)[O-])c(C)c1)=NCC2 ?
-- reply < 4.00

* * *

target: Endoribonuclease toxin MazF (Escherichia coli (strain K12), UniProt P0AE70); experiment: activation of MazEF endoribonuclease cleavage – biochemical, fluorescence, single-stranded RNA substrate, uHTS hits, dose response (AID 588481)
pEC50: −log10 of the molar value.
measured.quantity: pEC50

> print(dat)
                                   compound  value.reported
1  Oc1ccc2ccccc2c1C=Nn1c(O)csc1=S [MLS002707175]          < 4.00

-- ask What does the record list as pEC50 for O=C1Nc2ccc([N+](=O)[O-])cc2C1=NNc1ccc(F)cc1 ?
-- reply < 4.00

-- ask What does the record list as pEC50 for COCc1n[nH]c2c1C(c1cc(OC)c(O)c(OC)c1)C(C#N)C(=N)O2 (stereo not drawn) ?
-- reply < 4.00
